Data credit: PubChem BioAssay (NCI)

system: DMS 273 small cell lung; assay: NCI tumour cell line growth inhibition, 48 h
value.type: TGI

INSERT INTO measurements (molecule, result) VALUES
  ('O=S(=O)(O)C1=C2Sc3ccccc3N=C2c2ccccc2C1', '29.5 µM'),
  ('O=C(N/N=C/C=C/c1ccccc1)[C@H](O)[C@@H](O)C(=O)N/N=C/C=C/c1ccccc1', '> 100 µM'),
  ('NC12CC3CC(C1)CC(C(=O)O)(C3)C2', '> 100 µM'),
  ('CCC[CH2][Sn]1([CH2]CCC)[O]C(=O)CN=Cc2c(ccc3ccccc23)[O]1', '2.22 µM'),
  ('CNC(=O)C1CCc2nnc(-c3ccccc3)n21 (stereo not drawn)', '> 100 µM'),
  ('c1nc(N2CC2)c2cnn(C3CCCCO3)c2n1 (stereo not drawn)', '> 100 µM'),
  ('COc1cc(Nc2nc3ccccc3nc2-c2cccs2)cc(OC)c1OC', '> 100 µM'),
  ('NC(=O)COC(=O)c1c(Cl)nc2sccn12', '> 100 µM');
